Test: chemical genetic growth profiling, strain panel (AID 1159580);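 note: tested at 20 µM; growth read once vehicle control cultures reached saturation at 30 °C; 1 = growth at the plate median or of vehicle wells; lower values mean less growth of the strain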
Conditions: S. cerevisiae deletion strains, growth OD, locus YOR136W, strain idh2, hits give low values
Hit rate of the full screen: of about 5,500 compounds, about 2,000 (36%) were called active. Inconclusive results (about 18%) are left out. The list shows a part of the results.
Reported property: normalized growth
Enter the number alone.

Query block: Could you tell me which normalized growth is on file for O=C(O)COc1ccc(Cl)cc1Cl ?
Result block: 1.02

Query block: What does the record list as normalized growth for CCCCCCCCCCCCCC(=O)OC1C(C)C2(O)C(C=C(CO)CC3(O)C(=O)C(C)=CC32)C2C(C)(C)C12OC(C)=O (stereo unspecified) ?
Result block: 0.981

Query block: Could you share which normalized growth value was measured for FC(F)(F)c1cccc(N2CCNCC2)c1 ?
Result block: 0.987

Query block: // lookup normalized growth for C[C@]12CCC3C(CC[C@H]4C[C@H](O)CC[C@]34C)C1CC[C@@H]2O (stereo partly specified)
Result block: 0.984

Query block: What does the data say about its normalized growth? Entry: Cc1ccc(C(=O)c2ccc(CC(=O)O)n2C)cc1
Result block: 0.989

Query block: Query: normalized growth; subject: CC(=O)NCCc1c[nH]c2ccc(O)cc12
Result block: 0.989

Query block: State the recorded normalized growth for this entry: C[C@]12CCC3c4ccc(OC(=O)c5ccccc5)cc4CCC3C1CCC2=O (stereo partly specified)
Result block: 0.992

Query block: Value lookup for normalized growth; key = C[C@]12CCC3c4ccc(OC(=O)CCC(=O)O)cc4CCC3C1CCC2=O (stereo partly specified)
Result block: 0.995

Query block: Entry CN(C)CCC(c1ccccc1)c1ccccn1 (stereo unspecified) : reported normalized growth = ?
Result block: 0.99

Query block: Quick check: normalized growth of C[C@]12CCC3C(CC[C@H]4C[C@@H](O)CC[C@]34C)C1CC[C@@H]2O (stereo partly specified) ?
Result block: 1.02

Query block: I have this molecule here, CC(=O)C1CC[C@H]2C3CC[C@H]4C[C@H](O)CC[C@]4(C)C3CC[C@]12C (stereo partly specified) , and I need its recorded normalized growth.
Result block: 0.992

Query block: For the molecule COC1C=CC23c4cc5c(cc4CN(CC2O)[C@@H]3C1)OCO5 (stereo partly specified) , what normalized growth is on record?
Result block: 1

Query block: Query (molecule): CC12CCC3C(=CCc4cc(O)ccc43)C1CCC2=O (stereo unspecified) ; field requested: normalized growth
Result block: 1.01

Query block: # get_value(readout='normalized growth', item= OC[C@H]1O[C@@H](n2cnc3c(NCc4ccco4)ncnc32)[C@H](O)[C@@H]1O )
Result block: 1

Query block: // returns reported normalized growth for input CC(C)/C(O)=C1/C(=O)O[C@@H](c2ccoc2)[C@]2(C)C(O)[C@@H](O)[C@@]34OC5(C)OC67CC(C)(C(O)[C@]6(O)[C@@H](O)[C@]3(O5)C12)[C@H](CC(=O)O)[C@]74C (stereo partly specified)
Result block: 1.02

Query block: Give the measured normalized growth of CC(=O)N[C@@H](CCC(=O)O)C(=O)O .
Result block: 0.993

Query block: Can you look up the measured normalized growth of CCCNC(=O)NS(=O)(=O)c1ccc(Cl)cc1 for me?
Result block: 1

Query block: For Cc1cc(CC(=O)O)n(C)c1C(=O)c1ccc(Cl)cc1 , what is its reported normalized growth?
Result block: 1.02

Query block: Request the reported normalized growth associated with COc1ccc2c(=O)c(OC)c(-c3ccccc3)oc2c1
Result block: 0.95

Query block: Look up normalized growth: COc1ccc2oc(-c3ccccc3)c(OC)c(=O)c2c1
Result block: 0.922

Query block: Report normalized growth for CCC(=O)OC1[C@@H]2CC3=C4CC(=O)O[C@@H](c5ccoc5)[C@]4(C)CCC3[C@@](C)(C2=O)[C@@H](CC(=O)OC)C1(C)C (stereo partly specified) please.
Result block: 1.02
